// OD450 lookup, one value per entry
TARGET: T1, Peptide 8: Biotin-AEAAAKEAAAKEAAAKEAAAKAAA-Tyr-acid (N-terminal biotin; C-terminal acid; no PC)
T1 construct: control peptide without PC
T1 peptide: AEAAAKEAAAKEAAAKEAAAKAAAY
ASSAY_COMMENT: scFv ELISA
Method: For ELISA analysis of scFv binding, 96-well polystyrene plates were coated with Peptide 1, 4, 5, 8 or 100 μL BSA (10 μg/mL) in PBS at 4° C. overnight. […] All plates were washed three times with PBS-Tween before 40 μL aliquots of PPE were added to assay plates along with 50 μL 10% BSA, and plates were incubated for 1 hour at room temperature. […] The amount of scFv bound to each well was quantitated from absorbance measurement at 450 nm (OD450).
Record the result as a number with its unit.

What value of OD450 has been reported for the following binder? PcOxP_DB03_H09 (scFv, V domains shown, scFv in periplasmic extract) VH: EVQLLESGGGLVQPGGSLRLSCAASGFTFSDAYMEWVRQAPGKGLEWVAASRNKANSYTTEYADSVKGRFTISRDNSKNTLYLQMNSLRAEDTAVYYCARDYYGSSYWYFDVWGQGTLVTVSS VL: DIQMTQSPSSLSASVGDRVTITCTASESLYSSKHKVHYLAWYQQKPGKAPKLLIYGASNRYIGVPSRFSGSGSGTDFTLTISSLQPEDFATYYCAEFYSYPLTFGGGTKVEIK
0.06 OD450

What value of OD450 has been reported for the following binder? PcOxP_DB01_F06 (scFv, V domains shown, scFv in periplasmic extract) VH: EVQLLESGGGLVQPGGSLRLSCAASGDTFSDFYMEWVRQAPGKGLEWVAASRNKANDYTTEYADSVKGRFTISRDNSKNTLYLQMNSLRAEDTAVYYCARDYYGSSYWYFDVWGQGTLVTVSS VL: DIVMTQSPDSLAVSLGERATINCKSSQSLYYSSNKKNYLAWYQQKPGQPPKLLIYGASNRYGGVPDRFSGSGSGTDFTLTISSLQAEDVAVYYCAQFYRYPLTFGGGTKVEIK
0.04 OD450

What value of OD450 has been reported for the following binder? PcOxP_DB04_A09 (scFv, V domains shown, scFv in periplasmic extract) VH: EVQLLESGGGLVQPGGSLRLSCAASGFTFSDYYMEWVRQAPGKGLEWVAASRNKWNDYTTEYADSVKGRFTISRDNSKNTLYLQMNSLRAEDTAVYYCARDYYGSSYWYFDVWGQGTLVTVSS VL: DIQMTQSPSSLSASVGDRVTITCTAEESLYSSKHKVHYLAWYQQKPGKAPKLLIYGASNLYSGVPSRFSGSGSGTDFTLTISSLQPEDFATYYCAQFYSYPLTFGGGTKVEIK
0.06 OD450
